Read-out: Interleukin-8 (IL8), CXCL8 (gene 3576)
Protocol details: BSK_CASM3C_IL8: BioMAP Diversity Plus: CASM3C Assay for Interleukin-8 (IL8) Biomarker Activity (AID 2283042);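 also: IL-8 protein level quantified by ELISA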
Condition label: primary human coronary artery smooth muscle cells; actives raise or lower the signal
Active and inactive are the calls of the source. The calls were made as follows: active = hit-call score of the fitted dose curve at least 0.9, where 1 is the maximum; inactive = score below 0.9.
I would appreciate it if you answered using one of these outcomes: active, inactive

Recorded results for 6 compounds are shown here.
1) Cc1cc(C)c(O)c(C)c1	inactive
2) N#C[C@@H]1CC(F)(F)CN1C(=O)CNC1CC2CCC(C1)N2c1ncccn1 (stereo partly drawn)	inactive
3) ClC1=C(Cl)C(Cl)(Cl)C(Cl)=C1Cl	active
4) O=c1c(-c2ccc(O)cc2)coc2cc(O)ccc12	inactive
5) O=[N+]([O-])c1ccc(O)cc1	inactive
6) C=C(C)C(=O)OCCC(F)(F)C(F)(F)C(F)(F)C(F)(F)C(F)(F)C(F)(F)F	inactive

Recorded test call requested for "CC(C)(C)c1cccc(C(C)(C)C)c1O"
inactive

Dear all, I need the recorded test outcome for CC(O)CO (stereo not drawn) , thank you.
inactive

Short answer needed: outcome of this test for CCc1nn(C2CCCCC2)c2cc(C3(C#N)CCC(C(=O)O)CC3)ccc12 (stereo not drawn) ?
inactive

Tell me the assay call for "CCCCCCCC(=O)O" please.
inactive

Which result was noted for this compound in the test: CCC(C)(C)C1CCC(O)CC1 (stereo not drawn)
inactive

Would you mind telling me which call this test gave "CC(C)CCCCCCOC(=O)CCCCC(=O)OCCCCCCC(C)C" ?
inactive

Hi team, can someone confirm the assay call for "CCCCCCCCC(=O)O" ?
inactive
